Experiment: Pharmacokinetics in ICR mice after intravenous and intragastric administration
Assay type: in vivo
Conditions: male, ICR, mouse, plasma, po, 5 mg/kg, PO 5 mg/kg, ICR mice, Mean; read-out: MRT(0-t)
Please assign N whenever MRT last is at or above 2 h, and Y whenever it is below.

> print(dat)
                                   molecule  assigned.label
1  COc1cc(N(C)C)ccc1-c1nc2c(n1C(C)C)[C@@]1(C(=O)Nc3cc(Cl)ccc31)N(c1cc(Cl)ccc1C)C2=O [Example S-23]               N
2  COc1cc(OC)c(-c2nc3c(n2C(C)C)[C@@]2(C(=O)Nc4cc(Cl)ccc42)N(c2cc(Cl)ccc2C)C3=O)cn1 [Example S-11]               N
3  COc1ncc(-c2nc3c(n2C(C)C)[C@H](c2ccc(Cl)cc2)N(c2cc(Cl)cn(C)c2=O)C3=O)c(OC)n1 [HDM201, reference compound]               Y
4  COc1ncc(-c2nc3c(n2C(C)C)[C@@]2(C(=O)Nc4cc(Cl)ccc42)N(c2cccc(Cl)c2)C3=O)c(OC)n1 [Example S-1]               N
5  COc1ncc(-c2nc3c(n2C(C)C)[C@@]2(C(=O)Nc4cc(Cl)ccc42)N(c2cc(Cl)ccc2C)C3=O)c(OC)n1 [Example S-2]               N
6  COc1ccc(-c2nc3c(n2C(C)C)[C@@]2(C(=O)Nc4cc(Cl)ccc42)N(c2cc(Cl)ccc2C)C3=O)c(OC)c1 [Example S-9]               N

----------
Test: Pharmacokinetics in ICR mice after intravenous and intragastric administration
Format: in vivo
Conditions: male, ICR, mouse, plasma, po, 5 mg/kg, PO 5 mg/kg, ICR mice, individual animal; read-out: MRT(0-∞)
Parameter measured: MRT inf (h)

> print(dat)
                                   molecule  parameter.measured  recorded.value
1  COc1ncc(-c2nc3c(n2C(C)C)[C@@]2(C(=O)Nc4cc(Cl)ccc42)N(c2cccc(Cl)c2)C3=O)c(OC)n1 [Example S-1]             MRT inf            1.99
2  COc1ccc(-c2nc3c(n2C(C)C)[C@@]2(C(=O)Nc4cc(Cl)ccc42)N(c2cc(Cl)ccc2C)C3=O)c(OC)c1 [Example S-9]             MRT inf            2.92
3  COc1cc(OC)c(-c2nc3c(n2C(C)C)[C@@]2(C(=O)Nc4cc(Cl)ccc42)N(c2cc(Cl)ccc2C)C3=O)cn1 [Example S-11]             MRT inf            3.66

----------
Experiment: Pharmacokinetics in ICR mice after intravenous and intragastric administration
Type: in vivo
Details: male, ICR, mouse, plasma, po, 5 mg/kg, PO 5 mg/kg, ICR mice, individual animal; read-out: Tmax
Parameter measured: Tmax (h)

> print(dat)
                            smiles.notation  parameter.measured  recorded.value
1  COc1ccc(-c2nc3c(n2C(C)C)[C@@]2(C(=O)Nc4cc(Cl)ccc42)N(c2cc(Cl)ccc2C)C3=O)c(OC)c1                Tmax               2
2  COc1cc(OC)c(-c2nc3c(n2C(C)C)[C@@]2(C(=O)Nc4cc(Cl)ccc42)N(c2cc(Cl)ccc2C)C3=O)cn1                Tmax               1
3  COc1cc(N(C)C)ccc1-c1nc2c(n1C(C)C)[C@@]1(C(=O)Nc3cc(Cl)ccc31)N(c1cc(Cl)ccc1C)C2=O                Tmax               1

These data points were gathered from patent US11339171B2.
